Origin of measurements: ChEMBL document CHEMBL6109158

test: in vitro; conditions: mouse, microsomes
VALUE TYPE: microsomal CLint (µL/min/mg)
Please state the figure in µL/min/mg; there is no need to write the unit.

Field request: microsomal CLint | item: C[C@](O)(CN1CC2CCC(C1)N2c1ccc(C#N)cc1)C(=O)Nc1ccc(C#N)c(Cl)c1
114

* * *

experiment: in vitro; conditions: mouse, microsomes
Description: Metabolic stability in mouse liver microsomes assessed as half life
VALUE TYPE: half-life

Field request: half-life | item: C[C@](O)(CN1CC2CCC(C1)N2c1ccc(C#N)cc1)C(=O)Nc1ccc(C#N)c(Cl)c1
12.2 min

* * *

Each entry below carries its recorded half-life.
test: in vivo; conditions: male, C57BL/6, mouse, iv, 1 mg/kg
Description: Half life in male C57BL/6 mouse at 1 mg/kg, iv
Please state the figure in h; there is no need to write the unit.

ITEM SMILES | half-life, h
C[C@](O)(CN1CC2CCC(C1)N2c1ccc(C#N)cc1)C(=O)Nc1cnc(C#N)c(Cl)c1 | 1.61

Proceed to the following item.
Field request: half-life | item: C[C@](O)(CN1CC2CCC(C1)N2c1ccc(C#N)cc1)C(=O)Nc1ccc(C#N)c(Cl)c1
4.06

* * *

Each entry below carries its recorded AUC(0-t).
experiment: in vivo; conditions: male, C57BL/6, mouse, iv, 1 mg/kg
Please state the figure in ng·h/mL; there is no need to write the unit.

ITEM SMILES | READOUT UNITS | READOUT VALUE
C[C@](O)(CN1CC2CCC(C1)N2c1ccc(C#N)cc1)C(=O)Nc1ccc(C#N)c(Cl)c1 | ng·h/mL | 2330

Proceed to the following item.
Field request: AUC(0-t) | item: C[C@](O)(CN1CC2CCC(C1)N2c1ccc(C#N)cc1)C(=O)Nc1cnc(C#N)c(Cl)c1
1030

* * *

assay: in vitro; conditions: human, microsomes
VALUE TYPE: microsomal CLint
Note: a bare number is incomplete; add the unit.

Field request: microsomal CLint | item: C[C@](O)(CN1CC2CCC(C1)N2c1ccc(C#N)cc1)C(=O)Nc1ccc(C#N)c(Cl)c1
139 µL/min/mg

* * *

assay: in vitro; conditions: human, microsomes
VALUE TYPE: half-life (min)
Please state the figure in min; there is no need to write the unit.

Field request: half-life | item: C[C@](O)(CN1CC2CCC(C1)N2c1ccc(C#N)cc1)C(=O)Nc1ccc(C#N)c(Cl)c1
9.95

* * *

Each entry below carries its recorded C0.
assay: in vivo; conditions: male, C57BL/6, mouse, iv, 1 mg/kg
Description: C0 in male C57BL/6 mouse at 1 mg/kg, iv
Please state the figure in ng/mL; there is no need to write the unit.

ITEM SMILES | C0 (ng/mL)
C[C@](O)(CN1CC2CCC(C1)N2c1ccc(C#N)cc1)C(=O)Nc1ccc(C#N)c(Cl)c1 | 1420

Proceed to the following item.
Field request: C0 | item: C[C@](O)(CN1CC2CCC(C1)N2c1ccc(C#N)cc1)C(=O)Nc1cnc(C#N)c(Cl)c1
1140

* * *

assay: in vivo; conditions: male, C57BL/6, mouse, iv, 1 mg/kg
Description: Clearance in male C57BL/6 mouse at 1 mg/kg, iv
Each entry below carries its recorded clearance.
Please state the figure in mL/min/kg; there is no need to write the unit.

ITEM SMILES | clearance / mL/min/kg
C[C@](O)(CN1CC2CCC(C1)N2c1ccc(C#N)cc1)C(=O)Nc1ccc(C#N)c(Cl)c1 | 7.09

Field request: clearance | item: C[C@](O)(CN1CC2CCC(C1)N2c1ccc(C#N)cc1)C(=O)Nc1cnc(C#N)c(Cl)c1
16.2
